test: self-splicing fitness, log relative to wild type (ln ratio); higher = more splicing; Tetrahymena group I intron in knt gene, E. coli kanamycin selection, DiMSum; sequences stand for … in CUCUCU…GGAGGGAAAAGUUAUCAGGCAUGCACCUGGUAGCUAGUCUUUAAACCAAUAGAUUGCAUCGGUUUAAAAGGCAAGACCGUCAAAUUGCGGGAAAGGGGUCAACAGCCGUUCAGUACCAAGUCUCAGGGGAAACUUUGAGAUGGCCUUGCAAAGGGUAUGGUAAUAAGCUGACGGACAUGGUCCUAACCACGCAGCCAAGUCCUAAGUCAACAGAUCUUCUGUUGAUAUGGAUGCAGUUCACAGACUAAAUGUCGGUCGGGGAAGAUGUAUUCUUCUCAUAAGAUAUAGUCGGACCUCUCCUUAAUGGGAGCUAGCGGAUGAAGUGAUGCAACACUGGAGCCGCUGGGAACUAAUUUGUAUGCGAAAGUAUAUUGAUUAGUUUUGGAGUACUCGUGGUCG; details: 30 °C;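 note: selection with 25 µg/mL kanamycin versus none on LB agar overnight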
self-splicing fitness (ln) below -1 gives f; self-splicing fitness (ln) at or above it gives t.

Use these answered entries as a reference point.
In [3]: df
Out[3]:
       residue_sequence  discrete_label
0  CCACAGCAAUAUUACGCUAU               f
1  AUCAAGCAAUAUUACGCUUA               f
2  GUCUAGCAAUAUUACGUACA               t

Request: Check if self-splicing fitness (ln) >= -1 (inclusive). Item: AAGGAGCAAUAUUACGAGGG
Response: f

Request: Check if self-splicing fitness (ln) >= -1 (inclusive). Item: GCACAGCAAUAUUACGAGCC
Response: f

Request: Check if self-splicing fitness (ln) >= -1 (inclusive). Item: AUUAAGCAAUAUUACGGCAU
Response: t

Request: Check if self-splicing fitness (ln) >= -1 (inclusive). Item: AUGAAGCAAUAUUACGCUUA
Response: t

Request: Check if self-splicing fitness (ln) >= -1 (inclusive). Item: AGAUAGCAAUAUUACGUACC
Response: t
